- TEST DETAILS: Extraction with dimethyl ether (DME), distribution coefficient for comparison
- Format: physicochemical
- EXPERIMENTAL SETUP: extracting with dimethyl ether
Mark each entry 1.0 if its Distribution coefficient DME sits below 5, and 0.0 for all others.

CCCC(=O)OC [Methyl Butyrate]; 0.0
CCCC(C)=O; 0.0
O=C1CCCO1; 1.0

Q) Report whether reported Distribution coefficient DME is lower than 5 (strictly) for "CCC(=O)O"
A) 1.0

Q) Param item: "O=C(O)CCC(=O)O"
A) 1.0

Q) Param item: "O=Cc1ccco1"
A) 1.0

Q) Param item: "O=C(O)CCCC(=O)O"
A) 1.0
